Where these numbers come from: paper PMC8165744

Procedure Details: pharmacokinetics of GA metabolites in EHBRs orally treated with GA
Type: in vivo, Eisai hyperbilirubinuria rats (EHBRs)
Measurement Conditions: Eisai hyperbilirubinuria rat (EHBR), rat, plasma, 200 mg/kg; female EHBRs, GA 0.20 g/kg oral; read-out: plasma concentration 12 h after oral administration of GA
Test Readout: concentration at 12 h (µM)

[A] CC1(C)[C@@H](OS(=O)(=O)O)CC[C@]2(C)[C@H]3C(=O)C=C4[C@@H]5C[C@@](C)(C(=O)O[C@@H]6O[C@H](C(=O)O)[C@@H](O)[C@H](O)[C@H]6O)C[C@H](O)[C@]5(C)CC[C@@]4(C)[C@]3(C)CC[C@@H]12
[B] CC1(C)[C@@H](O)CC[C@]2(C)[C@H]3C(=O)C=C4[C@@H]5C[C@@](C)(C(=O)O)CC[C@]5(C)CC[C@@]4(C)[C@]3(C)CC[C@@H]12 [GA, glycyrrhetinic acid, reference compound]
[C] CC1(C)[C@@H](OS(=O)(=O)O)CC[C@]2(C)[C@H]3C(=O)C=C4[C@@H]5C[C@@](C)(C(=O)O[C@@H]6O[C@H](C(=O)O)[C@@H](O)[C@H](O)[C@H]6O)CC[C@]5(C)CC[C@@]4(C)[C@]3(C)CC[C@@H]12
[D] CC1(C)[C@@H](OS(=O)(=O)O)CC[C@]2(C)[C@H]3C(=O)C=C4[C@@H]5C[C@@](C)(C(=O)O)C[C@H](O)[C@]5(C)CC[C@@]4(C)[C@]3(C)CC[C@@H]12 [Compound 2, 22α-hydroxy-18β-glycyrrhetyl-3-O-sulfate]
Q: Please rank these molecules by concentration at 12 h in descending order. Please respond with the labels ordered as the question requires.
Ans: C, A, D, B
(C: 208 µM, A: 32 µM, D: 10 µM, B: 2.7 µM)
